half-life at 20 µM values by entry
protocol: Half life in simulated gastric fluid at 20 uM by LC-MS/MS analysis
Format: ADME

{"substance_smiles": "CC(=O)NCCCC[C@H](NC(=O)C(C)(C)NC(=O)[C@H](Cc1ccc2ccccc2c1)NC(=O)[C@H](Cc1ccc(OCCNC(C)=O)cc1)NC(=O)[C@@H](NC(=O)[C@H](CCC(N)=O)NC(=O)[C@H](Cc1c[nH]c2ccccc12)NC(=O)[C@@H](NC(=O)[C@H](CCC(N)=O)NC(=O)[C@@H](NC(C)=O)C(C)(C)S)[C@@H](C)O)C(C)(C)S)C(=O)N[C@@H](CC(N)=O)C(=O)N[C@@H](CC(N)=O)C(N)=O", "half-life at 20 µM": "> 6 h"}
{"substance_smiles": "COc1ccc(C[C@H](NC(=O)[C@@H](NC(=O)[C@H](CCC(N)=O)NC(=O)[C@H](Cc2c[nH]c3ccccc23)NC(=O)[C@@H](NC(=O)[C@H](CCC(N)=O)NC(=O)[C@@H](NC(=O)CCC(=O)O)C(C)(C)S)[C@@H](C)O)C(C)(C)S)C(=O)N[C@@H](Cc2ccc3ccccc3c2)C(=O)N[C@@](C)(CCCCN)C(=O)N[C@@H](CCCCNC(C)=O)C(=O)N[C@@H](CC(N)=O)C(=O)NCC(N)=O)cc1", "half-life at 20 µM": "3 to 6 h"}
{"substance_smiles": "CC(=O)NCCCC[C@H](NC(=O)C(C)(C)NC(=O)[C@H](Cc1ccc2ccccc2c1)NC(=O)[C@H](Cc1ccc(OCCN)cc1)NC(=O)[C@@H](NC(=O)[C@H](CCC(N)=O)NC(=O)[C@H](Cc1c[nH]c2ccccc12)NC(=O)[C@@H](NC(=O)[C@H](CC(N)=O)NC(=O)[C@@H](NC(C)=O)C(C)(C)S)[C@@H](C)O)C(C)(C)S)C(=O)N[C@@H](CC(N)=O)C(=O)N[C@@H](CC(N)=O)C(N)=O", "half-life at 20 µM": "> 6 h"}
{"substance_smiles": "CC(=O)NCCCC[C@H](NC(=O)C(C)(C)NC(=O)[C@H](Cc1ccc2ccccc2c1)NC(=O)[C@H](Cc1ccc(OCCN)cc1)NC(=O)[C@@H](NC(=O)[C@H](CCC(N)=O)NC(=O)[C@H](Cc1c[nH]c2ccccc12)NC(=O)[C@@H](NC(=O)[C@H](CC(N)=O)NC(=O)[C@@H](NC(=O)[C@@H](Cc1ccccc1)NC(C)=O)C(C)(C)S)[C@@H](C)O)C(C)(C)S)C(=O)N[C@@H](CC(N)=O)C(=O)N[C@@H](CC(N)=O)C(N)=O", "half-life at 20 µM": "> 6 h"}
{"substance_smiles": "COc1ccc(C[C@H](NC(=O)[C@@H]2CSCC[C@H](NC(C)=O)C(=O)N[C@@H](CCC(N)=O)C(=O)N[C@@H]([C@@H](C)O)C(=O)N[C@@H](Cc3c[nH]c4ccccc34)C(=O)N[C@@H](CCC(N)=O)C(=O)N2)C(=O)N[C@@H](Cc2ccc3ccccc3c2)C(=O)N[C@@](C)(CCCN)C(=O)N[C@@H](CCC(=O)O)C(=O)N[C@@H](CC(N)=O)C(=O)NCC(N)=O)cc1", "half-life at 20 µM": "< 1 h"}
{"substance_smiles": "CC(=O)NCCCC[C@H](NC(=O)C(C)(C)NC(=O)[C@H](Cc1ccc2ccccc2c1)NC(=O)[C@H](Cc1ccc(OCCN)cc1)NC(=O)[C@@H](NC(=O)[C@H](CCC(N)=O)NC(=O)[C@H](Cc1c[nH]c2ccccc12)NC(=O)[C@@H](NC(=O)[C@H](CC(N)=O)NC(=O)[C@@H](NC(C)=O)C(C)(C)S)[C@@H](C)O)C(C)(C)S)C(=O)N[C@@H](CC(N)=O)C(=O)N[C@@H](CCC(N)=O)C(N)=O", "half-life at 20 µM": "> 6 h"}
{"substance_smiles": "COc1ccc(C[C@H](NC(=O)[C@@H](NC(=O)[C@H](CCC(N)=O)NC(=O)[C@H](Cc2c[nH]c3ccccc23)NC(=O)[C@@H](NC(=O)[C@H](CC(N)=O)NC(=O)[C@@H](NC(C)=O)C(C)(C)S)[C@@H](C)O)C(C)(C)S)C(=O)N[C@@H](Cc2ccc3ccccc3c2)C(=O)NC(C)(C)C(=O)N[C@@H](CCCCNC(C)=O)C(=O)N[C@@H](CC(N)=O)C(=O)N[C@@H](CCC(N)=O)C(N)=O)cc1", "half-life at 20 µM": "> 6 h"}
{"substance_smiles": "COc1ccc(C[C@H](NC(=O)[C@H]2NC(=O)[C@H](CCC(N)=O)NC(=O)[C@H](Cc3c[nH]c4ccccc34)NC(=O)[C@H]([C@@H](C)O)NC(=O)[C@H](CCC(N)=O)NC(=O)[C@@H](NC(C)=O)CCSC2(C)C)C(=O)N[C@@H](Cc2ccc3ccccc3c2)C(=O)N[C@@](C)(CCCCN)C(=O)N[C@@H](CCCCNC(C)=O)C(=O)N[C@@H](CC(N)=O)C(=O)NCC(N)=O)cc1", "half-life at 20 µM": "2 to 3 h"}
